# MEASUREMENT_NOTES: AUC in ob/ob C57BL/6J-leptin deficient obese mouse at 3 mg/kg administered as multiple dose after 11 days
# Format: ADME, organism-based
# Set-up: dose 3 mg/kg
# MEASUREMENT_CONTEXT: plasma

| SAMPLE_SMILES | AUC at 264 h (µg·h/mL) |
| --- | --- |
| Cc1cc(SCc2nc(-c3ccc(Cl)c(Cl)c3)ns2)ccc1OC(C)(C)C(=O)O | 249 |

###

# MEASUREMENT_NOTES: AUC in ob/ob C57BL/6J-leptin deficient obese mouse at 0.1 mg/kg administered as multiple dose after 11 days
# Type: ADME, organism-based
# Set-up: dose 0.1 mg/kg
# MEASUREMENT_CONTEXT: plasma

| SAMPLE_SMILES | AUC at 264 h |
| --- | --- |
| Cc1cc(SCc2nc(-c3ccc(Cl)c(Cl)c3)ns2)ccc1OC(C)(C)C(=O)O | 2.79 µg·h/mL |
